Each recorded value in this set is attributed to the supplement of paper PMC12338614.

B1: library; numbered along this chain (parent)
chain: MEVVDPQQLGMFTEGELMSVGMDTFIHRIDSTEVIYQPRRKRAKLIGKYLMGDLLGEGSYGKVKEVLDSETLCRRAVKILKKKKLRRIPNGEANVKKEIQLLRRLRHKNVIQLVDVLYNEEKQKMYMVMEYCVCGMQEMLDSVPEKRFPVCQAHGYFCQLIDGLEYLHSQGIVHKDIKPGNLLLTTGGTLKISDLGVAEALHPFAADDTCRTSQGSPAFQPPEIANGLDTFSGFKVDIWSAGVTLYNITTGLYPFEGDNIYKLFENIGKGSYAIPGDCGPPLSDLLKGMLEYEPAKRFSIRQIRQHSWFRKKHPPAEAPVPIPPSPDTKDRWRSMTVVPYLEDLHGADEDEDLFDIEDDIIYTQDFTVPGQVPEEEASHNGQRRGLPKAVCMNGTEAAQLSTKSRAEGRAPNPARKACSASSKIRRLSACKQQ

Variants of: B1
Test: STK11 functional score (HeLa growth suppression), rescaled enrichment; synonymous median = 1, nonsense median = 0 (normalised score)
Conditions: with HeLa; variant type: missense
measure-name: STK11 functional score
Numbers only.

[[record]]
mutation_name = "E14L"
result = 1

[[record]]
mutation_name = "Q112N"
result = 1.55

[[record]]
mutation_name = "D258W"
result = 1.5

[[record]]
mutation_name = "D194P"
result = -0.348

[[record]]
mutation_name = "S216F"
result = -0.0894


Go through the list and state STK11 functional score for each entry.
1. D350A
2. E376F
3. A318C
4. G135C

OUT:
1. 0.867
2. 1.35
3. 1.23
4. 1.54
